Target: Cytochrome P450 1A2 (Homo sapiens, UniProt P05177)
Sequence (P05177 whole entry): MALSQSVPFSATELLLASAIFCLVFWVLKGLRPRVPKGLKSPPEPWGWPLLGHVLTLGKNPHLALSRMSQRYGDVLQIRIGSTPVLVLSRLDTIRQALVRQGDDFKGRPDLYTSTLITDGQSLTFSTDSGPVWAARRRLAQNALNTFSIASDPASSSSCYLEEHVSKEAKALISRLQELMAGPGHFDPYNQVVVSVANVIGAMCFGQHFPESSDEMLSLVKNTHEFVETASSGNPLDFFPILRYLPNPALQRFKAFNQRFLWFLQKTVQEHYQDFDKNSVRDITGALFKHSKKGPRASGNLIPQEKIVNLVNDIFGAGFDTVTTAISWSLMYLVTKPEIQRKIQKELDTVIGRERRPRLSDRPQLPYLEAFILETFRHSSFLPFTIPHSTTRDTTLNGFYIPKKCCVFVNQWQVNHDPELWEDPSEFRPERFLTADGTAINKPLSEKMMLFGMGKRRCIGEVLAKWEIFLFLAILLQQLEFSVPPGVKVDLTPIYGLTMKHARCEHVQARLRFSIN
Readout label: IC50

>  <Smiles input>
Cc1n[nH]c(C(=O)O)c1Cc1cccc(-c2ccc(F)cc2)c1

>  <Test value>
> 10 µM

$$$$

###

test system: Plasma; test: Plasma concentration in Wistar rat at 3 mg/kg, po bid administered for 15 days measured 12 to 15 hrs post-last dose; type: ADME, organism-based; design: dose 3 mg/kg, route oral; conditions: in vivo
Items are presented alongside their recorded concentration.
Readout label: concentration (µM)

>  <Smiles input>
Cc1n[nH]c(C(=O)O)c1Cc1cccc(-c2ccc(F)cc2)c1

>  <Experimental system>
Plasma

>  <Readout label>
concentration

>  <Unit spec>
µM

>  <Test value>
0.2

$$$$
>  <Smiles input>
Cc1[nH]nc(C(=O)O)c1Cc1cc2ccccc2s1

>  <Experimental system>
Plasma

>  <Readout label>
concentration

>  <Unit spec>
µM

>  <Test value>
12

$$$$

###

test system: Kidney; assay: Drug uptake in Wistar rat kidney at 3 mg/kg, po bid administered for 15 days measured 1 hr post-last dose; type: ADME, organism-based; design: dose 3 mg/kg, route oral; details: in vivo
Readout label: Drug uptake (nmol/g)

>  <Smiles input>
Cc1n[nH]c(C(=O)O)c1Cc1cccc(-c2ccc(F)cc2)c1

>  <Test value>
10

$$$$
>  <Smiles input>
Cc1[nH]nc(C(=O)O)c1Cc1cc2ccccc2s1

>  <Test value>
34

$$$$

###

Items are presented alongside their recorded half-life.
assay: Elimination half life in rat at 1 mg/kg, iv; assay type: ADME, organism-based; set-up: dose 1 mg/kg, route intravenous; details: in vivo, read-out: beta t1/2 (converted)
Readout label: half-life (h)

>  <Smiles input>
Cc1n[nH]c(C(=O)O)c1Cc1cccc(-c2ccc(F)cc2)c1

>  <Unit spec>
h

>  <Test value>
1.7

$$$$
>  <Smiles input>
Cc1[nH]nc(C(=O)O)c1Cc1cc2ccccc2s1

>  <Unit spec>
h

>  <Test value>
3.7

$$$$

###

test system: Kidney; assay: Drug uptake in Wistar rat kidney at 30 mg/kg, po bid administered for 15 days measured 12 to 15 hrs post-last dose; type: ADME, organism-based; set-up: dose 30 mg/kg, route oral; settings: in vivo

>  <Smiles input>
Cc1n[nH]c(C(=O)O)c1Cc1cccc(-c2ccc(F)cc2)c1

>  <Drug uptake, nmol/g>
7

$$$$

###

molecular target: Cytochrome P450 3A4 (Homo sapiens)
Sequence (P08684 whole entry): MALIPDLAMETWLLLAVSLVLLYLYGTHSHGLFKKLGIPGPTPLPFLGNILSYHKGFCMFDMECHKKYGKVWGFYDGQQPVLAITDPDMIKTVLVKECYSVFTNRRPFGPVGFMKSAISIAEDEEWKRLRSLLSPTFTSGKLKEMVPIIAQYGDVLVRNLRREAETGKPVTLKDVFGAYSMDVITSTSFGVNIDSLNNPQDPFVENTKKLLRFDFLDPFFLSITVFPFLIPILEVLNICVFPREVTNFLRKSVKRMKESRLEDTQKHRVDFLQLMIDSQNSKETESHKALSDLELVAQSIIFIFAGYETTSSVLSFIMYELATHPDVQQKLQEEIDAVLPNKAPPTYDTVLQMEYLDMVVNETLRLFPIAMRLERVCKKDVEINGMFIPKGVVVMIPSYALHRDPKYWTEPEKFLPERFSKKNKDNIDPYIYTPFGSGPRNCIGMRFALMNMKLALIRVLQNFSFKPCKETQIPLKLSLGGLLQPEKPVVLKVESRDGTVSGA
pIC50: −log10 of the molar value.

>  <Smiles input>
Cc1[nH]nc(C(=O)O)c1Cc1cc2ccccc2s1

>  <pIC50>
< 5.00

$$$$

###

experiment: Plasma concentration in Wistar rat at 30 mg/kg, po bid administered for 15 days measured 1 hr post-last dose; assay type: ADME, organism-based; design: dose 30 mg/kg, route oral
Readout label: concentration at 1 h (µM)

>  <Smiles input>
Cc1[nH]nc(C(=O)O)c1Cc1cc2ccccc2s1

>  <Readout label>
concentration at 1 h

>  <Unit spec>
µM

>  <Test value>
157

$$$$
>  <Smiles input>
Cc1n[nH]c(C(=O)O)c1Cc1cccc(-c2ccc(F)cc2)c1

>  <Readout label>
concentration at 1 h

>  <Unit spec>
µM

>  <Test value>
8

$$$$

###

test: Plasma protein binding in rat; format: ADME, cell-free; details: read-out: PPB

>  <Smiles input>
Cc1n[nH]c(C(=O)O)c1Cc1cccc(-c2ccc(F)cc2)c1

>  <fraction unbound>
< 0.01

$$$$
>  <Smiles input>
Cc1[nH]nc(C(=O)O)c1Cc1cc2ccccc2s1

>  <fraction unbound>
< 0.01

$$$$

###

target: Cytochrome P450 2C9 (Homo sapiens, UniProt P11712)
Sequence (P11712 whole entry): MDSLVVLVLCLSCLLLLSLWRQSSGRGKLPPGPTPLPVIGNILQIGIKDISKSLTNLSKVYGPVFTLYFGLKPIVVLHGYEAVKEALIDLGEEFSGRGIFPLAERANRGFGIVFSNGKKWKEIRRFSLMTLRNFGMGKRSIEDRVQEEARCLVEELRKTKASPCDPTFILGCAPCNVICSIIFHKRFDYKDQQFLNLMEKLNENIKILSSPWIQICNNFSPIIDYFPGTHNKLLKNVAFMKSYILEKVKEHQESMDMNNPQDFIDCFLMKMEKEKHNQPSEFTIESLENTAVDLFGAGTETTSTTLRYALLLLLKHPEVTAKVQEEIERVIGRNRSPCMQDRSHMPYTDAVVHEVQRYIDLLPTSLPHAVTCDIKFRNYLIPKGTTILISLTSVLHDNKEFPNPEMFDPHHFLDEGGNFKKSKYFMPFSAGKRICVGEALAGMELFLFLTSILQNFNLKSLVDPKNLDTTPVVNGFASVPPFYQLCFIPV
pIC50: −log10 of the molar value.
Readout label: pIC50

>  <Smiles input>
Cc1n[nH]c(C(=O)O)c1Cc1cccc(-c2ccc(F)cc2)c1

>  <Readout label>
pIC50

>  <Test value>
< 5.00

$$$$

###

tested on: Kidney; experiment: Drug uptake in Wistar rat kidney at 3 mg/kg, po bid administered for 15 days measured 12 to 15 hrs post-last dose; assay type: ADME, organism-based; parameters: dose 3 mg/kg, route oral; conditions: in vivo
Readout label: Drug uptake (nmol/g)

>  <Smiles input>
Cc1n[nH]c(C(=O)O)c1Cc1cccc(-c2ccc(F)cc2)c1

>  <Readout label>
Drug uptake

>  <Test value>
3

$$$$
>  <Smiles input>
Cc1[nH]nc(C(=O)O)c1Cc1cc2ccccc2s1

>  <Readout label>
Drug uptake

>  <Test value>
13

$$$$

###

Target: 2-Hydroxyacid oxidase 2 (Rattus norvegicus)
Sequence (Q07523 whole entry): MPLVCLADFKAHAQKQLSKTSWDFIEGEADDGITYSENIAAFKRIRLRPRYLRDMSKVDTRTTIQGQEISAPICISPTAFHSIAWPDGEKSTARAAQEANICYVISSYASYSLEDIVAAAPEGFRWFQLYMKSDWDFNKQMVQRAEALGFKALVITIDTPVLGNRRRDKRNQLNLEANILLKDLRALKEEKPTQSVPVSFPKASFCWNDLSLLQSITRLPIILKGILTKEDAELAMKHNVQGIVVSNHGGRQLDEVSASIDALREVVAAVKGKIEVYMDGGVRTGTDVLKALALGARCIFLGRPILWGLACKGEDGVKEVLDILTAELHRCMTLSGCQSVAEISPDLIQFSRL
Readout label: IC50 (nM)

>  <Smiles input>
Cc1[nH]nc(C(=O)O)c1Cc1cc2ccccc2s1

>  <Test value>
300

$$$$

###

experiment: Plasma concentration in Wistar rat at 3 mg/kg, po bid administered for 15 days measured 1 hr post-last dose; type: ADME, organism-based; set-up: dose 3 mg/kg, route oral
Items are presented alongside their recorded concentration at 1 h.

>  <Smiles input>
Cc1[nH]nc(C(=O)O)c1Cc1cc2ccccc2s1

>  <concentration at 1 h (µM)>
48

$$$$
>  <Smiles input>
Cc1n[nH]c(C(=O)O)c1Cc1cccc(-c2ccc(F)cc2)c1

>  <concentration at 1 h (µM)>
2.2

$$$$

###

test: Tmax in rat at 10 mg/kg, po; format: ADME, organism-based; set-up: dose 10 mg/kg, route oral; conditions: in vivo
Readout label: Tmax

>  <Smiles input>
Cc1[nH]nc(C(=O)O)c1Cc1cc2ccccc2s1

>  <Test value>
15 min

$$$$
>  <Smiles input>
Cc1n[nH]c(C(=O)O)c1Cc1cccc(-c2ccc(F)cc2)c1

>  <Test value>
15 min

$$$$

###

Items are presented alongside their recorded AUC(0-t) at 8 h.
test: AUC (0 to 8 hrs) in rat at 10 mg/kg, po; format: ADME, organism-based; parameters: time < 8 hr, dose 10 mg/kg, route oral; conditions: plasma
Readout label: AUC(0-t) at 8 h (µM·h)

>  <Smiles input>
Cc1n[nH]c(C(=O)O)c1Cc1cccc(-c2ccc(F)cc2)c1

>  <Test value>
27

$$$$
>  <Smiles input>
Cc1[nH]nc(C(=O)O)c1Cc1cc2ccccc2s1

>  <Test value>
517

$$$$

###

assay: Volume of distribution at steady state in rat at 1 mg/kg, iv; assay type: ADME, organism-based; parameters: dose 1 mg/kg, route intravenous; settings: in vivo, read-out: Vdss

>  <Smiles input>
Cc1[nH]nc(C(=O)O)c1Cc1cc2ccccc2s1

>  <Vd, L/kg>
0.14

$$$$
>  <Smiles input>
Cc1n[nH]c(C(=O)O)c1Cc1cccc(-c2ccc(F)cc2)c1

>  <Vd, L/kg>
0.6

$$$$

###

target: UniProtKB P33261
Sequence (P33261 whole entry): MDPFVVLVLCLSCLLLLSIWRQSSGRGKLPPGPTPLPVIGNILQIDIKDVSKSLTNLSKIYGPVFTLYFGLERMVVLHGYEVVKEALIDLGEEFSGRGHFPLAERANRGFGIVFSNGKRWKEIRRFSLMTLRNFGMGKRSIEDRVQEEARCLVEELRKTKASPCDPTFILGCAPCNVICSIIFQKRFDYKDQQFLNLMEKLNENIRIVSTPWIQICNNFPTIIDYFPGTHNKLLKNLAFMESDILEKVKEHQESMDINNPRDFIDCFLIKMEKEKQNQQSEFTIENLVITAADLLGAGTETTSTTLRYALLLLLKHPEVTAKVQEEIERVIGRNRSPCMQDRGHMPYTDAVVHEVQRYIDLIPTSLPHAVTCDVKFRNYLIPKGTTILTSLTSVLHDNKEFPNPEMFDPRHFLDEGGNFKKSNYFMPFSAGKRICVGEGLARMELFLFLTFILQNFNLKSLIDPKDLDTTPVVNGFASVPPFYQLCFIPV
pIC50: −log10 of the molar value.

>  <Smiles input>
Cc1[nH]nc(C(=O)O)c1Cc1cc2ccccc2s1

>  <pIC50>
< 5.00

$$$$

###

test: AUC (0 to 8 hrs) in rat at 1 mg/kg, iv; format: ADME, organism-based; design: time < 8 hr, dose 1 mg/kg, route intravenous; settings: plasma
Readout label: AUC(0-t) at 8 h

>  <Smiles input>
Cc1[nH]nc(C(=O)O)c1Cc1cc2ccccc2s1

>  <Test value>
97 µM·h

$$$$
>  <Smiles input>
Cc1n[nH]c(C(=O)O)c1Cc1cccc(-c2ccc(F)cc2)c1

>  <Test value>
7.1 µM·h

$$$$
